Value source: ChEMBL document CHEMBL4007416

# tgt: LSD1/CoREST complex (Homo sapiens)
# assayName: Inhibition of recombinant human KDM1A/CoREST complex expressed in Escherichia coli using [Lys(Me1)4]-Histone H3 (1 to 21 residues)-GGK(biotin) as substrate incubated for 20 mins measured after 1 hr by TR-FRET assay
pIC50: −log10 of the molar value.
measuredAttribute: pIC50

Query: Consider the compound "Cn1c(C(=O)Nc2ccccc2COc2ccncc2)cc2sccc21" and give its recorded pIC50.
Reply: < 4.00

Query: Read off the recorded pIC50 for "COCc1ccccc1NC(=O)c1cc2sccc2n1C"
Reply: < 4.00

Query: Supply measured pIC50 of "COCc1ccc(NC(=O)c2cc3sccc3n2C)cc1" in your reply.
Reply: < 4.00

----------
Would you kindly list IC50 for each of these compounds?
# tgt: LSD1/CoREST complex (Homo sapiens, UniProt O60341)
# assayName: Inhibition of recombinant human KDM1A/CoREST complex expressed in Escherichia coli using [Lys(Me1)4]-Histone H3 (1 to 21 residues)-GGK(biotin) as substrate incubated for 20 mins measured after 1 hr by TR-FRET assay

Query: Return value of IC50 for input "COc1ccc(NC(=O)c2cc3sccc3n2C)cc1" , no commentary.
Reply: > 100000 nM

Query: Find the measured IC50 of "CN1CCC(Oc2ccc(OCc3ccccc3NC(=O)c3cc4sccc4n3C)cc2)CC1" and report it.
Reply: 310 to 331 nM

Query: Return value of IC50 for input "COCc1cccc(NC(=O)c2cc3sccc3n2C)c1COc1ccc(OC[C@@H]2CCNC2)cc1" , no commentary.
Reply: 8.4 nM

Query: Entry "Cn1c(C(=O)Nc2ccc(OCc3ccncc3)cc2)cc2sccc21" needs its IC50 filled in; supply it.
Reply: > 100000 nM

Query: Respond only with IC50 recorded for "Cn1c(C(=O)Nc2ccccc2COc2ccc(OC3CCN(Cc4ccccc4)CC3)cc2)cc2sccc21"
Reply: > 100000 nM

Query: State its IC50 for this compound: "Cn1c(C(=O)Nc2cccc(OCc3ccncc3)c2)cc2sccc21"
Reply: 5800 nM

Query: Please list IC50 recorded for the compound Cn1c(C(=O)Nc2ccccc2COc2ccc(OC3CCNC3)cc2)cc2sccc21 (configuration not stated)
Reply: 804 nM

----------
Kindly state pIC50 for each of the entries shown.
# tgt: LSD1/CoREST complex (Homo sapiens)
# assayName: Inhibition of recombinant human KDM1A/CoREST complex expressed in Escherichia coli using [Lys(Me1)4]-Histone H3 (1 to 21 residues)-GGK(biotin) as substrate incubated for 20 mins measured after 1 hr by TR-FRET assay
Recall that pIC50 is obtained by taking minus log10 of the concentration measured in molar.

Query: Consider the compound "CC(C)OCc1cccc(NC(=O)c2cc3sccc3n2C)c1COc1ccc(OC2CCNCC2)cc1" . State its measured pIC50.
Reply: 7.18

Query: Return pIC50 (reported value) for this compound: "Cn1c(C(=O)Nc2ccccc2COc2ccc(O[C@H]3CC[C@@H](N)CC3)cc2)cc2sccc21"
Reply: 6.92

Query: Give the reported value of pIC50 for this record: "Cn1c(C(=O)Nc2ccccc2COc2ccc(OCC3CCNCC3)cc2)cc2sccc21"
Reply: 6.83

Query: Respond only with pIC50 recorded for "COCc1cccc(NC(=O)c2cc3sccc3n2C)c1COc1ccc(OC[C@H]2CCNC2)cc1"
Reply: 7.07

Query: Name the recorded pIC50 of the item Cn1c(C(=O)Nc2ccccc2COc2ccc(OC3CCCNCC3)cc2)cc2sccc21 (configuration not stated) in your answer.
Reply: 7.19

Query: Check the records and state pIC50 for Cn1c(C(=O)Nc2ccccc2COc2ccc(OC3C[C@H]4CC[C@@H](C3)N4)cc2)cc2sccc21 (some centres not stated)
Reply: 6.91
